These data points were gathered from the supplement of paper PMC7877785.

Reported values of self-splicing fitness (ln) for individual entries
procedureDetails: self-splicing fitness, log relative to wild type (ln ratio); higher = more splicing; Tetrahymena group I intron in knt gene, E. coli kanamycin selection, DiMSum; sequences stand for … in CUCUCU…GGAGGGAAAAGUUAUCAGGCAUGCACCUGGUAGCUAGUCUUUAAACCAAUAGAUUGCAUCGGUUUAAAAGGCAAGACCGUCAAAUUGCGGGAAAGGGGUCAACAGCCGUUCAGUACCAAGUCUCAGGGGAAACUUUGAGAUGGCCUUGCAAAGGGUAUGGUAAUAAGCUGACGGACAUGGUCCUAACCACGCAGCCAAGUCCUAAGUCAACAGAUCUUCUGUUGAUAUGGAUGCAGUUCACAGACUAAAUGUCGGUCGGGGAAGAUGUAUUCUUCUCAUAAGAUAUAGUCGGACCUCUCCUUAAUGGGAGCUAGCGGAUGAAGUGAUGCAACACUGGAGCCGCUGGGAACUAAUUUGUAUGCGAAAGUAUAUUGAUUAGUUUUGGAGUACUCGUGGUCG;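 also: selection with 25 µg/mL kanamycin versus none on LB agar overnight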
experimentalConditions: 37 °C

[
  {
    "residueCodes": "UCUCAGCAAUAUUACGUGGA",
    "self-splicing fitness (ln)": -1.05
  },
  {
    "residueCodes": "CGCAAGCAAUAUUACGAGCG",
    "self-splicing fitness (ln)": -2.52
  },
  {
    "residueCodes": "UGUCAGCAAUAUUACGUUCG",
    "self-splicing fitness (ln)": 0.709
  },
  {
    "residueCodes": "UAACAGCAAUAUUACGCCCA",
    "self-splicing fitness (ln)": 0.423
  },
  {
    "residueCodes": "GGGUAGCAAUAUUACGGUGC",
    "self-splicing fitness (ln)": -1.34
  },
  {
    "residueCodes": "CUUAAGCAAUAUUACGGCCU",
    "self-splicing fitness (ln)": -3.1
  },
  {
    "residueCodes": "GUUGAGCAAUAUUACGCUUG",
    "self-splicing fitness (ln)": -2.15
  },
  {
    "residueCodes": "CCGUAGCAAUAUUACGCAGU",
    "self-splicing fitness (ln)": -2.6
  },
  {
    "residueCodes": "ACUGAGCAAUAUUACGAGCG",
    "self-splicing fitness (ln)": -0.615
  },
  {
    "residueCodes": "CUGGAGCAAUAUUACGUCCG",
    "self-splicing fitness (ln)": -0.559
  },
  {
    "residueCodes": "AUGGAGCAAUAUUACGACCG",
    "self-splicing fitness (ln)": -1.19
  },
  {
    "residueCodes": "GAUUAGCAAUAUUACGAGUC",
    "self-splicing fitness (ln)": -2.58
  },
  {
    "residueCodes": "GGUGAGCAAUAUUACGCUUA",
    "self-splicing fitness (ln)": -1.92
  },
  {
    "residueCodes": "AUUUAGCAAUAUUACGGAUC",
    "self-splicing fitness (ln)": -0.766
  },
  {
    "residueCodes": "CAAUAGCAAUAUUACGGAUG",
    "self-splicing fitness (ln)": -1.12
  },
  {
    "residueCodes": "AACAAGCAAUAUUACGGUAU",
    "self-splicing fitness (ln)": -1.16
  },
  {
    "residueCodes": "ACGAAGCAAUAUUACGAUUA",
    "self-splicing fitness (ln)": -0.917
  },
  {
    "residueCodes": "CUACAGCAAUAUUACGCGUA",
    "self-splicing fitness (ln)": -2.84
  },
  {
    "residueCodes": "UACGAGCAAUAUUACGAGGG",
    "self-splicing fitness (ln)": -2.11
  },
  {
    "residueCodes": "GCUGAGCAAUAUUACGGAAA",
    "self-splicing fitness (ln)": -2.63
  },
  {
    "residueCodes": "CGCUAGCAAUAUUACGUGGU",
    "self-splicing fitness (ln)": -2.61
  },
  {
    "residueCodes": "CCAUAGCAAUAUUACGGCAG",
    "self-splicing fitness (ln)": -1.34
  },
  {
    "residueCodes": "AAAGAGCAAUAUUACGAGGU",
    "self-splicing fitness (ln)": -2.82
  },
  {
    "residueCodes": "UGGAAGCAAUAUUACGCCCU",
    "self-splicing fitness (ln)": -0.0341
  },
  {
    "residueCodes": "ACACAGCAAUAUUACGUAUA",
    "self-splicing fitness (ln)": -2.5
  },
  {
    "residueCodes": "CUAGAGCAAUAUUACGGCGG",
    "self-splicing fitness (ln)": 0.501
  },
  {
    "residueCodes": "GGUCAGCAAUAUUACGAUAC",
    "self-splicing fitness (ln)": -1.59
  },
  {
    "residueCodes": "AAUCAGCAAUAUUACGGAGC",
    "self-splicing fitness (ln)": -0.807
  },
  {
    "residueCodes": "AAAAAGCAAUAUUACGUACA",
    "self-splicing fitness (ln)": -0.613
  },
  {
    "residueCodes": "AGGUAGCAAUAUUACGUGAC",
    "self-splicing fitness (ln)": -1.69
  },
  {
    "residueCodes": "GUCCAGCAAUAUUACGGCAC",
    "self-splicing fitness (ln)": -0.348
  },
  {
    "residueCodes": "GAACAGCAAUAUUACGACCU",
    "self-splicing fitness (ln)": -0.0216
  },
  {
    "residueCodes": "GCUCAGCAAUAUUACGUAGC",
    "self-splicing fitness (ln)": -1.43
  },
  {
    "residueCodes": "ACUUAGCAAUAUUACGAGUA",
    "self-splicing fitness (ln)": -1.33
  },
  {
    "residueCodes": "CGAUAGCAAUAUUACGGCUU",
    "self-splicing fitness (ln)": -1.51
  },
  {
    "residueCodes": "CAAGAGCAAUAUUACGGUGG",
    "self-splicing fitness (ln)": -1.58
  },
  {
    "residueCodes": "UCAAAGCAAUAUUACGCGCG",
    "self-splicing fitness (ln)": 0.256
  },
  {
    "residueCodes": "UCACAGCAAUAUUACGUUUG",
    "self-splicing fitness (ln)": -1.2
  },
  {
    "residueCodes": "GCUUAGCAAUAUUACGCCGU",
    "self-splicing fitness (ln)": -0.553
  },
  {
    "residueCodes": "GCACAGCAAUAUUACGAGCA",
    "self-splicing fitness (ln)": -0.832
  },
  {
    "residueCodes": "GUACAGCAAUAUUACGACCA",
    "self-splicing fitness (ln)": -0.829
  },
  {
    "residueCodes": "AAGCAGCAAUAUUACGUCAA",
    "self-splicing fitness (ln)": -1.36
  },
  {
    "residueCodes": "AUUCAGCAAUAUUACGAUAU",
    "self-splicing fitness (ln)": 0.146
  },
  {
    "residueCodes": "CACCAGCAAUAUUACGCCAU",
    "self-splicing fitness (ln)": -2.03
  },
  {
    "residueCodes": "AGCGAGCAAUAUUACGCCGG",
    "self-splicing fitness (ln)": -2.44
  },
  {
    "residueCodes": "AUCAAGCAAUAUUACGACCA",
    "self-splicing fitness (ln)": 0.0541
  },
  {
    "residueCodes": "AAUAAGCAAUAUUACGACGA",
    "self-splicing fitness (ln)": -0.362
  },
  {
    "residueCodes": "CGGUAGCAAUAUUACGCGAA",
    "self-splicing fitness (ln)": -1.28
  },
  {
    "residueCodes": "AUGUAGCAAUAUUACGUAAA",
    "self-splicing fitness (ln)": -1.9
  },
  {
    "residueCodes": "CAAGAGCAAUAUUACGCACG",
    "self-splicing fitness (ln)": -0.942
  },
  {
    "residueCodes": "UCCAAGCAAUAUUACGCGAA",
    "self-splicing fitness (ln)": -0.748
  },
  {
    "residueCodes": "AGCAAGCAAUAUUACGCCAA",
    "self-splicing fitness (ln)": -1.97
  },
  {
    "residueCodes": "UAGCAGCAAUAUUACGUACG",
    "self-splicing fitness (ln)": -0.47
  },
  {
    "residueCodes": "GAAAAGCAAUAUUACGAGAG",
    "self-splicing fitness (ln)": -2.48
  },
  {
    "residueCodes": "CUUCAGCAAUAUUACGCUGA",
    "self-splicing fitness (ln)": -2.56
  },
  {
    "residueCodes": "GCCAAGCAAUAUUACGCGAG",
    "self-splicing fitness (ln)": -2
  },
  {
    "residueCodes": "ACACAGCAAUAUUACGCCUG",
    "self-splicing fitness (ln)": -0.245
  },
  {
    "residueCodes": "GGACAGCAAUAUUACGGUUG",
    "self-splicing fitness (ln)": -0.752
  }
]
